test: Quantitative High-Throughput drug screen in 47 multiple myeloma cell lines against the NCATS MIPE library collection: L363_DSMZ cell viability assay (AID 1918984); settings: L363 myeloma viability, CellTiter-Glo ATP luminescence, 48 h; series mostly up to 45.8 µM; also: nearly all actives have a fitted effect of over 40% in size
Results filed as inconclusive are left out. Calls of active or inactive are those of the source. Calls follow the shape of the dose curve; as a rule, active = well fitted cell-killing curve with a large enough effect; inconclusive = small, poorly fitted or top-dose-only effect, or effect the other way; inactive = no such curve, though single readings can be large or run the other way.
Respond with a class label; see active, inactive

Please review the following examples before continuing.
>  <compound>
Cc1cnc(-c2cnc(NCCNc3ccc(C#N)cn3)nc2-c2ccc(Cl)cc2Cl)[nH]1

>  <label value>
inactive

$$$$
>  <compound>
C=C1C(=CC=C2CCCC3(C)[C@@H]([C@H](C)C=CC=CC(O)(CC)CC)CC[C@@H]23)C[C@@H](O)C[C@@H]1O (some centres undefined)

>  <label value>
active

$$$$
>  <compound>
Nc1ccn([C@@H]2CS[C@H](CO)O2)c(=O)n1

>  <label value>
inactive

$$$$
>  <compound>
CC(C)Nc1cc(C(F)(F)F)cc2nc(NC(=O)c3cccnc3)nn12

>  <label value>
inactive

$$$$
>  <compound>
CCCCOc1c(C(=O)c2c(F)cc(C)cc2F)cnc2n[nH]cc12

>  <label value>
active

$$$$

Incoming: Which outcome was assigned to Cc1ccc(C(N)=O)cc1Nc1nccc(-c2cn(C(C)C)c3cnccc23)n1 in this test?
Outgoing: active

Incoming: // param item: COc1cc(OC2CCN(C)CC2)ccc1Nc1ncc2c(n1)n(C1CCCC1)c(=O)n2C ; yields the recorded call
Outgoing: active

Incoming: Check the results log: what was the call for Nc1cc(C(F)(F)F)c(-c2cc(N3CCOCC3)nc(N3CCOCC3)n2)cn1 ?
Outgoing: active

Incoming: Each compound tested received a call. Report the one for Cc1cn(-c2cc(NC(=O)c3ccc(C)c(Nc4nccc(-c5cccnc5)n4)c3)cc(C(F)(F)F)c2)cn1 .
Outgoing: inactive

* * *

tested on: JEG-3; experiment: Primary qHTS to identify gynecologic anti-cancer compounds using libraries of approved drugs and bioactive compounds (AID 1345084); settings: Gynecologic cancer cell panel viability, ATPlite luminescence, 48 h; series mostly up to 57.5 µM; also: nearly all actives have a fitted effect of over 55% in size; also: potency is read from the fitted curve at half-maximal effect
Records with an inconclusive call do not appear. The source made the active and inactive calls. Calls follow the shape of the dose curve; as a rule, active = well fitted cell-killing curve with a large enough effect; inconclusive = small, poorly fitted or top-dose-only effect, or effect the other way; inactive = flat fitted curve, though single readings scatter.
quantity kind: Potency

>  <compound>
CCCn1c(=O)c2[nH]c(-c3cnn(Cc4cccc(C(F)(F)F)c4)c3)nc2n(CC)c1=O

>  <experimental system>
JEG-3

>  <Potency>
inactive

$$$$
>  <compound>
O=C(c1cncc(Br)c1)N1CCC(N2CCCC2)CC1

>  <experimental system>
JEG-3

>  <Potency>
inactive

$$$$
>  <compound>
CCOc1ccccc1OCCNC(C)Cc1ccc(OC)c(S(N)(=O)=O)c1 (stereo not given)

>  <experimental system>
JEG-3

>  <Potency>
inactive

$$$$
>  <compound>
CC(=O)Nc1nc(C)c(-c2ccc(Cl)c(S(=O)(=O)NCCO)c2)s1

>  <experimental system>
JEG-3

>  <Potency>
inactive

$$$$
>  <compound>
CC(=O)Nc1sc2c(c1-c1nc3ccccc3s1)CNC2

>  <experimental system>
JEG-3

>  <Potency>
inactive

$$$$
>  <compound>
C[C@@H]1COC(Nc2ccc3ncnc(Nc4ccc(OCc5nccs5)c(Cl)c4)c3c2)=N1

>  <experimental system>
JEG-3

>  <Potency>
inactive

$$$$

Incoming: Given COCCOc1ccc2c(c1)ncn2-c1ccc2cccc(N3CCC(N)CC3)c2n1 , state its recorded Potency.
Outgoing: 17.8 µM (active)

* * *

assay: Quantitative High-Throughput drug screen in 47 multiple myeloma cell lines against the NCATS MIPE library collection: OCIMY7_PLB cell viability assay (AID 1918987); conditions: OCI-MY7 myeloma viability, CellTiter-Glo ATP, 48 h; series mostly up to 45.8 µM; also: potency is read from the fitted curve at half-maximal effect; nearly all actives have a fitted effect of over 65% in size
Results filed as inconclusive are left out. The source made the active and inactive calls. Calls come from the whole dose curve; as a rule, active = well fitted cell-killing curve with a large enough effect; inconclusive = small, poorly fitted or top-dose-only effect, or effect the other way; inactive = no such curve, though single readings can be large or run the other way.
The following molecules are listed with their measured Potency values.

Below, each entry is followed by its recorded Potency result.
>  <molecule>
O=C(O)[C@H](Cc1c[nH]c2ccccc12)N1C(=O)c2ccccc2C1=O

>  <quantity kind>
Potency

>  <experimental value>
30.3 µM (active)

$$$$
>  <molecule>
O=C(C=Cc1cccnc1)NCCCCC1CCN(C(=O)c2ccccc2)CC1

>  <quantity kind>
Potency

>  <experimental value>
0.0105 µM (active)

$$$$
>  <molecule>
Nc1nc(Nc2ccc(S(N)(=O)=O)cc2)nn1C(=O)c1c(F)cccc1F

>  <quantity kind>
Potency

>  <experimental value>
3.32 µM (active)

$$$$
>  <molecule>
OCCCNc1cc(-c2ccnc(Nc3cccc(Cl)c3)n2)ccn1

>  <quantity kind>
Potency

>  <experimental value>
0.0469 µM (active)

$$$$
>  <molecule>
Cc1cc(Nc2cc(N3CCN(C)CC3)nc(C=Cc3ccccc3)n2)n[nH]1

>  <quantity kind>
Potency

>  <experimental value>
0.605 µM (active)

$$$$

Incoming: Potency lookup needed for COc1cc2nccc(Oc3ccc(NC(=O)C4(C(=O)Nc5ccc(F)cc5)CC4)cc3)c2cc1OC , thanks.
Outgoing: 18.7 µM (active)

Incoming: For CN1CCC(CNc2ccc3ncc(-c4cccc(OC(F)(F)F)c4)n3n2)CC1 , what is its reported Potency?
Outgoing: 4.69 µM (active)

Incoming: Need Potency, item C=C1C(=CC=C2CCC[C@]3(C)[C@@H]([C@H](C)C=C[C@H](C)C(C)C)CC[C@@H]23)C[C@@H](O)C[C@@H]1O
Outgoing: 11.8 µM (active)

Incoming: What value of measured Potency is listed for CC(C)(C)c1cnc(CSc2cnc(NC(=O)C3CCNCC3)s2)o1 ?
Outgoing: 2.35 µM (active)

* * *

experiment: qHTS of pediatric cancer cell lines to identify multiple opportunities for drug repurposing: Primary screen for Saos-2 cells (AID 1347097); conditions: Saos-2 viability, CellTiter-Glo ATP luminescence, 48 h; series mostly up to 46 µM; also: nearly all actives have a fitted effect of over 40% in size
Inconclusive results are not listed. The source made the active and inactive calls. Calls come from the whole dose curve; as a rule, active = well fitted cell-killing curve with a large enough effect; inconclusive = small, poorly fitted or top-dose-only effect; inactive = no such curve, though single readings can be large or run the other way.
Answer with one of the outcomes active, inactive

Known results for compounds:
>  <compound>
CCn1nnc2c(N3CCOCC3)nc(-c3ccc(NC(=O)Nc4ccc(C(=O)N5CCN(C)CC5)cc4)cc3)nc21

>  <label value>
active

$$$$
>  <compound>
Cc1cc(Nc2cc(N3CCN(C)CC3)nc(Sc3ccc(NC(=O)C4CC4)cc3)n2)n[nH]1

>  <label value>
inactive

$$$$
>  <compound>
CCN(CC)CCNC(=O)c1ccc2nc(-c3ccccc3)c(-c3ccc(CN4CCC(n5c(=O)[nH]c6ccccc65)CC4)cc3)nc2c1

>  <label value>
active

$$$$
>  <compound>
COC(=O)c1ccc2c(C(=Nc3ccc(N(C)C(=O)CN4CCN(C)CC4)cc3)c3ccccc3)c(O)[nH]c2c1

>  <label value>
active

$$$$
>  <compound>
O=C(C=Cc1c(C(=O)O)[nH]c2cc(Cl)cc(Cl)c12)Nc1ccccc1

>  <label value>
inactive

$$$$
>  <compound>
CN1c2cc(O)c(N=NC(N)=O)cc2CC1S(=O)(=O)O (centres undefined)

>  <label value>
inactive

$$$$
>  <compound>
CN1CCN(Cc2ccc(NC(=O)Nc3ccc(Oc4cc(NC(=O)C5CC5)ncn4)cc3)cc2C(F)(F)F)CC1

>  <label value>
active

$$$$
>  <compound>
CCNC(=O)Nc1ccc2ncc(Nc3ccc(C)cc3)nc2n1

>  <label value>
active

$$$$

We next turn to a different compound, shown below.
Incoming: Per the records of this test, what outcome belongs to C[C@@H]1CN(CC(=O)Nc2ccc3c(c2)Cc2cccc(-c4cc(=O)cc(N5CCOCC5)o4)c2S3)C[C@H](C)O1 ?
Outgoing: active

* * *

test: qHTS Assay for Lipid Storage Modulators (AID 1519); conditions: Drosophila S3 cells, BODIPY lipid droplet/cell ratio, laser cytometry; measured here: lipid channel max response; cells loaded with oleic acid
Records with an inconclusive call do not appear.
Entries and their max response values follow.
Field format: number, assumed %, no unit text.

>  <smiles notation>
C[C@H]1C[C@@H]2[C@@H]([C@@H](O)C[C@@]3(C)[C@H]2CC[C@]3(O)C(=O)CO)[C@@]2(C)C=CC(=O)C=C12

>  <experimental value>
-14.8

$$$$
>  <smiles notation>
O=c1c2ccccc2nc2n1CCc1c-2[nH]c2ccccc12

>  <experimental value>
50

$$$$
>  <smiles notation>
Cc1coc2c1C(=O)C(=O)c1c-2ccc2c1CCCC2(C)C

>  <experimental value>
23.2

$$$$
>  <smiles notation>
CC[C@@]1(O)C(=O)OCc2c1cc1n(c2=O)Cc2cc3cc(O)ccc3nc2-1

>  <experimental value>
-17.5

$$$$

Let us move to another entry and its max response.
Incoming: For Nc1ccc(S(=O)(=O)Nc2ncccn2)cc1 , what is its reported max response?
Outgoing: -7.25

* * *

experiment: Quantitative High-Throughput drug screen in 47 multiple myeloma cell lines against the NCATS MIPE library collection: NCIH929_DSMZ cell viability assay (AID 1918978); details: NCI-H929 myeloma viability, CellTiter-Glo ATP, 48 h; series mostly up to 45.8 µM; also: potency is read from the fitted curve at half-maximal effect; nearly all actives have a fitted effect of over 35% in size
Records with an inconclusive call do not appear. Calls of active or inactive are those of the source. Calls follow the shape of the dose curve; as a rule, active = well fitted cell-killing curve with a large enough effect; inconclusive = small, poorly fitted or top-dose-only effect; inactive = no such curve, though single readings can be large or run the other way.
quantity kind: Potency

Some compounds with recorded Potency:
>  <smiles notation>
Cc1ccc(NC(=O)C2(c3ccc4c(c3)OC(F)(F)O4)CC2)nc1-c1cccc(C(=O)O)c1

>  <experimental value>
0.235 µM (active)

$$$$
>  <smiles notation>
CC[C@H](CO)Nc1nc(NCc2ccccc2)c2ncn(C(C)C)c2n1

>  <experimental value>
10.5 µM (active)

$$$$
>  <smiles notation>
Cc1cc(Nc2cc(CN3CCOCC3)c3nc(C)c(Cc4ccc(Cl)cc4F)n3n2)n[nH]1

>  <experimental value>
26.4 µM (active)

$$$$

Incoming: Which value of Potency has been reported for Cc1cc(N2CCOCC2)cc2[nH]c(-c3c(NC[C@@H](O)c4cccc(Cl)c4)cc[nH]c3=O)nc12 in the records?
Outgoing: 0.0526 µM (active)

Incoming: Which Potency value is on record for OCc1ccc(-c2ccc(-c3ccc(CO)s3)o2)s1 ?
Outgoing: 2.64 µM (active)

Incoming: Fill in the blank: the reported Potency of Cn1cncc1[C@@](N)(c1ccc(Cl)cc1)c1ccc2c(c1)c(-c1cccc(Cl)c1)cc(=O)n2C is ____.
Outgoing: 5.26 µM (active)

Incoming: Quick check: Potency of N#CCNC(=O)c1ccc(-c2ccnc(Nc3ccc(N4CCOCC4)cc3)n2)cc1 ?
Outgoing: 9.35 µM (active)

Incoming: What does the record list as Potency for Cc1ccc(C(=O)Nc2ccc(CN3CCN(C)CC3)c(C(F)(F)F)c2)cc1C#Cc1cnc2cccnn12 ?
Outgoing: 0.935 µM (active)

Incoming: So what's the measured Potency for this one? CCOc1cc2ncc(C#N)c(Nc3ccc(F)c(Cl)c3)c2cc1NC(=O)C=CCN(C)C
Outgoing: 5.9 µM (active)
